Hey, just so you know, these numbers are from ChEMBL document CHEMBL1201862.

Test system: HT-29
Experiment: NCI tumour cell line growth inhibition, 48 h
Activity calls are given as the source filed them. No stated cut-off is given here; in the data, active = GI50 up to about 1.1 µM and inactive = higher.
Pick one and only one: 1 (yes) (active), 0 (no) (inactive)

Would you please look over these solved cases?
O=c1[nH]nc(-c2ccccc2)n1/N=C/c1cccs1 | 0 (no)
COc1ccc(N2C(=O)C3c4[nH]c5c(C)cccc5c4C4CCC(C(C)C)CC4C3C2=O)cc1 (stereo not drawn) | 0 (no)
CC1=C(C(=O)Nc2ccc(Cl)c(Cl)c2)C(c2ccc([N+](=O)[O-])cc2)C(C(=O)Nc2ccc(Cl)c(Cl)c2)=C(C)N1 | 0 (no)

*Q* Recorded test call requested for CCOC(=O)Cc1csc(NC(NC(=O)OCC)(C(=O)OCC)C(F)(F)F)n1 (stereo not drawn)
*A* 0 (no)

*Q* Would you kindly repeat that for COc1ccc(NC(=O)CC/C(CC(=O)c2ccco2)=N/NC(=O)C(N)=O)cc1 ?
*A* 0 (no)

*Q* Would you kindly repeat that for CC(=O)c1cc2c3c(c1)c1cc4c(cc1c(=O)n3CC2)OCO4 ?
*A* 0 (no)

*Q* Would you kindly repeat that for C=C1c2nc3ccccc3n2C=C(c2ccc(OC)cc2)N1c1ccc(OCCN2CCOCC2)cc1 ?
*A* 0 (no)
